These entries and their values trace back to patent US7087642B2.

Measured pKi, listed per entry for reference.
molecular target: IMPDH human type II (Homo sapiens); experiment: biochemical
pKi: −log10 of the molar value.

{"compound": "COc1cc(NC(=O)Nc2cccc(CNC(=O)Oc3cccc(/C=C/C(=O)OC(C)(C)C)c3)c2)ccc1-c1cnco1", "attribute.measured": "pKi", "experimental.value": "> 8.00"}
{"compound": "CCN(C)CCC(OC(=O)NCc1cccc(NC(=O)Nc2ccc(-c3cnco3)c(OC)c2)c1)c1ccccc1 (stereo not shown)", "attribute.measured": "pKi", "experimental.value": "< 7.30"}
{"compound": "CC[C@@H](CC#N)OC(=O)N[C@H](C)c1cccc(NC(=O)Nc2ccc(C#N)c(OC)c2)c1", "attribute.measured": "pKi", "experimental.value": "< 7.30"}
{"compound": "CC[C@@H](CC#N)OC(=O)N[C@@H](C)c1cccc(NC(=O)Nc2ccc(C#N)c(OC)c2)c1", "attribute.measured": "pKi", "experimental.value": "7.30 to 8.00"}
{"compound": "CC[C@H](CC#N)OC(=O)N[C@@H](C)c1cccc(NC(=O)Nc2ccc(C#N)c(Cl)c2)c1", "attribute.measured": "pKi", "experimental.value": "7.30 to 8.00"}

Query: // fetch pKi given entry COc1cc(NC(=O)Nc2cccc(CNC(=O)OC(CC[N+](C)(C)C)c3ccccc3)c2)ccc1-c1cnco1 (stereo not shown)
Reply: > 8.00

Query: // fetch pKi given entry `C[C@H](NC(=O)O[C@H]1CCOC1)c1cccc(NC(=O)Nc2ccc(C#N)c(Cl)c2)c1`
Reply: 7.30 to 8.00

Query: // fetch pKi given entry `CC[C@H](CC#N)OC(=O)N[C@@H](C)c1cccc(NC(=O)Nc2ccc(C#N)c(OC)c2)c1`
Reply: > 8.00

Query: // fetch pKi given entry CCC(CC#N)OC(=O)N[C@H](C)c1cccc(NC(=O)Nc2ccc(C#N)c(OC)c2)c1 (stereo partly shown)
Reply: < 7.30

Query: // fetch pKi given entry CCN(CC)CCC(OC(=O)NCc1cccc(NC(=O)Nc2ccc(-c3cnco3)c(OC)c2)c1)c1ccccc1 (stereo not shown)
Reply: < 7.30
